The values you see were collected from patent US6620828B2.

Molecular target: CDK2/Cyclin A complex (Homo sapiens, UniProt P24941)
Assay: CDK2/Cyclin A assay
Type: biochemical
Settings: 1.0 μM; combinatorial library compounds
Experimental: CDK2/Cyclin A Construct for Assay: CDK2 was purified using published methodology (Rosenblatt et al., J. Mol. Biol., 230, 1317-1319 (1993)) from insect cells that had been infected with a baculovirus expression vector. […] Cyclin-dependent kinase activity was measured by quantifying the enzyme-catalyzed, time-dependent incorporation of radioactive phosphate from [^32P]ATP into a recombinant fragment of the retinoblastoma protein. […]
measurementLabel: inhibition at 1 µM (%)
# number only, unit % dropped from output

Answered examples (4):
INSERT INTO measurements (compound, measuredon, reported) VALUES
  ('Cc1c(-c2csc(-c3sc(Nc4ccc(S(N)(=O)=O)cc4)nc3N)n2)sc2ccc(Cl)cc12 [drawing 424]', 'CDK2/Cyclin A complex (Homo sapiens, UniProt P24941)', 67),
  ('Cc1c(F)cc(-c2csc(-c3sc(Nc4ccc(N(C)C)cc4)nc3N)n2)cc1Cl', 'CDK2/Cyclin A complex (Homo sapiens, UniProt P24941)', 8.2),
  ('Nc1nc(Nc2ccc(S(N)(=O)=O)cc2)sc1-c1nc(-c2ccc(F)c(F)c2)cs1', 'CDK2/Cyclin A complex (Homo sapiens, UniProt P24941)', 12.4),
  ('Nc1nc(Nc2ccc(S(N)(=O)=O)cc2)sc1-c1nc(-c2cccc(Br)c2)cs1', 'CDK2/Cyclin A complex (Homo sapiens, UniProt P24941)', 17.6);

Query: Fill in the blank: the reported inhibition at 1 µM of COc1cccc(-c2csc(-c3sc(Nc4ccc(S(N)(=O)=O)cc4)nc3N)n2)c1 is ____.
Response: 5.9

Query: Fill in the blank: the reported inhibition at 1 µM of CN(C)c1ccc(Nc2nc(N)c(-c3nc(-c4ccc(-c5ccccc5)cc4)cs3)s2)cc1 is ____.
Response: 14.5

Query: Fill in the blank: the reported inhibition at 1 µM of CN(C)c1ccc(Nc2nc(N)c(-c3nc(-c4ccc(C(F)(F)F)cc4)cs3)s2)cc1 is ____.
Response: 33.4
